B1: Osa-1-4 twister ribozyme (parent)
chain: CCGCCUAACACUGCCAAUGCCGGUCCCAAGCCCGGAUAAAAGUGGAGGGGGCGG

# Variants of: B1
# assay: self-cleavage, relative activity (ratio to wild type); higher = more cleavage; co-transcriptional
Please use criterion met whenever self-cleavage is not below 0.05, and criterion not met whenever it is.

Reference set (5 entries):
CCGCCUAACACUGCCAAUGACGGUCGCAAGCCCGGAUAAAAGUGGAGGGGGCGG [C20A C26G] | criterion met
CCGCCUAACACUCCCAAUGCCGGCCCCAAGCCCGGAUAAAAGUGGAGGGGGCGG [G13C U24C] | criterion not met
CCGCCUAACACUGCCAAUGGCGGUCCCAAGCCCGGAUAAAAGUGAAGGGGGCGG [C20G G45A] | criterion not met
CCGCCUAACACUGCCAAUGCCUGUCCUAAGCCCGGAUAAAAGUGGAGGGGGCGG [C27U G22U] | criterion met
CCGCCUAACACUGCCAAUGCCGGUCCCAAGCCCGCAUAAAAGUGGAGGGGGGGG [C52G G35C] | criterion met

Entry CCGCCUAACACUGCCAAUGCCGGUCCCAAGCCCGGAUAAAAGUAGAGGGGGCUG [G44A G53U] : is its self-cleavage no less than 0.05?
criterion met

From: the RNAGym collection of RNA variant scans (doi:10.1002/anie.201605470)
